- Tested on: P388 leukemia ip, CD2F1 mice, survival T/C
- assayInfo: NCI In Vivo Anticancer Drug Screen. Data for tumor model P388 Leukemia (intraperitoneal) in CD2F1 (CDF1) mice
- conditionNotes: endpoint: median survival time; dose: 100.0 mg/kg/injection; schedule: Q01DX009 (ip); vehicle: saline
Toxic doses and inconclusive results are not listed. The calls were made as follows: active = survival T/C of 150% or more; inactive = T/C below 125% in these data.
Assign a class; possible classes are 1 for active, -1 for inactive

| compound | labelClass |
| --- | --- |
| COC(=O)C1C(O)C(C)C(O)C(C)/C=C\C=C(C)C(=O)Nc2c(C)c(OC(C)=O)c3c(c2O)C(=O)C(C)=C2OCOC(=C23)C(C)=CC(C)(O)C(O)C(C)C1O (stereo not given) | -1 |

I'd appreciate the recorded outcome for COc1c2c(nc3ccccc13)-c1cc3c(c(=O)n1C2)COC(=O)C3(O)CC(=O)N1CCOCC1 (stereo not given) from this test. 1

Try the compound Cc1cc(Cl)cnc1N -1

The reported measurements were obtained from PubChem BioAssay AID330.
